# Tested on: U2OS
# Protocol Details: Multiplex assay against U2OS
# Type: toxicity, cell-based
# Experimental Parameters: human, 48 h, 10 µM, compound concentration 10 uM, replicate 2
Classify by Population Pyknosed Nuclei (%). Ranges: low range = under 20%, mid range = from 20% up to 30%, high range = 30% and over

Which bin, given its Population Pyknosed Nuclei (%), does CN1CCC[C@@H]1CCO[C@](C)(c1ccccc1)c1ccc(Cl)cc1.O=C(O)/C=C/C(=O)O [CLEMASTINE FUMARATE] occupy?
mid range

Which bin, given its Population Pyknosed Nuclei (%), does C=CC(=O)Nc1cccc(C(=O)Nc2ccc(Nc3cc(-c4[nH]c(SC)nc4C)ccn3)cc2)c1 occupy?
low range

Which bin, given its Population Pyknosed Nuclei (%), does COc1cc(-n2cnc3cc(-c4ccc(Cl)cc4)sc3c2=O)ccc1OCCN1CCCC1 occupy?
low range

Which bin, given its Population Pyknosed Nuclei (%), does Cc1[nH]c(/C=C2\C(=O)Nc3ccc(S(=O)(=O)N(C)c4cccc(Cl)c4)cc32)c(C)c1C(=O)N1CCN(C)CC1 occupy?
low range

Which bin, given its Population Pyknosed Nuclei (%), does CC[C@H](C)C(=O)O[C@H]1C[C@@H](C)C=C2C=C[C@H](C)[C@H](CC[C@@H]3C[C@@H](O)CC(=O)O3)[C@H]21 occupy?
low range

Which bin, given its Population Pyknosed Nuclei (%), does CN1CCN(c2ccc(OC(F)(F)F)c(Nc3ncc4c(n3)-c3c(c(C(N)=O)nn3CCO)CC4)c2)CC1 occupy?
low range

Which bin, given its Population Pyknosed Nuclei (%), does CC(C)(O)CNc1ncc(-c2ccnc(Nc3ccnc(Cl)c3)n2)c(CC2CC2)n1 occupy?
high range

Which bin, given its Population Pyknosed Nuclei (%), does Cc1csc2c(N[C@@H](C)CN3CCN(S(=O)(=O)c4ccc(Cl)c(Cl)c4)CC3)ncnc12 occupy?
high range

Which bin, given its Population Pyknosed Nuclei (%), does CN(C)C(=O)N[C@H]1CC[C@H](CCN2CCN(c3cccc(Cl)c3Cl)CC2)CC1.Cl [CARIPRAZINE HYDROCHLORIDE] occupy?
mid range

Which bin, given its Population Pyknosed Nuclei (%), does Cc1nc(-c2ccc(-c3ccc(C(=O)N4CCc5cc6c(cc54)C4(CCN(C)CC4)CO6)cc3)c(C)c2)no1 occupy?
high range

Which bin, given its Population Pyknosed Nuclei (%), does Cc1cc(C)cc(-c2cnc3cc(Cl)c(-c4cccc(O)c4)cc3c2OCCCN)c1 occupy?
high range

Which bin, given its Population Pyknosed Nuclei (%), does COc1ncc(-c2ccc3nccc(-c4ccnnc4)c3c2)cc1NS(=O)(=O)c1ccc(F)cc1F occupy?
high range

Which bin, given its Population Pyknosed Nuclei (%), does CN1CCCC(n2nc(Cc3ccc(Cl)cc3)c3ccccc3c2=O)CC1.Cl (centres undefined) [AZELASTINE HYDROCHLORIDE] occupy?
mid range
